Data provenance is PubChem BioAssay.

# test-system: Dickkopf-related protein 1 (Homo sapiens)
# run-description: DKK1 binders on small-molecule microarrays, primary screen, biochemical, small-molecule microarray, 635 nm fluorescence scan (AID 1106);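 further: score merges emission near 667 nm with signal to noise over three replicate slides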
# study-conditions: DKK1 binding, higher = more signal
Please use Criterion met whenever composite z-score is not below -0.1, and Criterion not met whenever it is.

Use these answered entries as a reference point.
Query: Please indicate if the recorded composite z-score for C=CCC(OC(C)=O)[C@@H]1[C@@H](N(Cc2cccc3ccccc23)C(=O)c2ccc(C)cc2)c2cc(OCCCO)ccc2N1C(=O)c1ccc(-c2ccccc2)cc1 (some centres not stated) meets or exceeds -0.1.
Reply: Criterion not met

Query: Please indicate if the recorded composite z-score for `C#C[C@H](O[Si](C#Cc1ccccc1)(C(C)C)C(C)C)c1ccccc1` meets or exceeds -0.1.
Reply: Criterion not met

Query: Please indicate if the recorded composite z-score for `CCN1C(C)=C(C(=O)OC)[C@@H](c2ccccc2)N2C(=O)[C@@]3(C(=O)OC)O[C@@]12[C@@H]1C(=O)CCC[C@@H]13` meets or exceeds -0.1.
Reply: Criterion met

Query: Please indicate if the recorded composite z-score for C[C@@H]1NC(=O)[C@H](Cc2ccccc2)NC(=O)[C@@]23C(=O)N[C@@H](Cc4ccccc4)C2[C@H](C)[C@@]2(C)O[C@H]2C3/C=C/C/C=C\CNC1=O (some centres not stated) meets or exceeds -0.1.
Reply: Criterion met

Query: Please indicate if the recorded composite z-score for `O=C(NCc1ccccc1)[C@@]1(CCS(=O)(=O)c2ccccc2)COC(c2ccc(OCCCO)cc2)=N1` meets or exceeds -0.1.
Reply: Criterion not met

Query: Please indicate if the recorded composite z-score for `CO[C@H]1COC(=O)[C@H](CCSC)NC(=O)CC=C[C@@H](C)COC(=O)[C@@H](OCc2ccccc2)C=C[C@@H]1C` meets or exceeds -0.1.
Reply: Criterion met

Alright, here's another compound for you.
Query: Please indicate if the recorded composite z-score for `Cc1ccc(N2C(=O)c3ccccc3[C@](C)(C(=O)NCC(C)C)[C@@H]2c2ccc(CO)cc2)nc1` meets or exceeds -0.1.
Reply: Criterion not met
